- System: Trypanosoma brucei rhodesiense
- TEST_PROTOCOL: Antiprotozoal activity against Trypanosoma brucei rhodesiense STIB900 after 72 hrs by Alamar Blue assay
- Assay type: functional, organism-based
- CONDITION_DETAILS: Trypanosoma brucei, STIB900, 72 h
Response field label: string, one of Met (IC50 strictly below 10000 nM) or Not met.

Does "Cl.Cl.N/C(=N/O)c1ccc(-c2cccc(-c3ccc(/C(N)=N\O)cc3)c2)cc1" have IC50 strictly under 10000 nM?
Not met

Determine if "N=C(N)c1cccc(-c2cc(Cl)cc(-c3cccc(C(=N)N)c3)c2)c1" shows IC50 strictly lower than 10000 nM.
Met

Strictly below 10000 nM: is that where IC50 of "Cl.Cl.N=C(N)c1ccc(-c2cc(O)cc(-c3ccc(C(=N)N)cc3)c2)cc1" sits?
Met

Could you please tell me whether IC50 recorded for "CO/N=C(\N)c1ccc(-c2cccc(-c3ccc(/C(N)=N\OC)cn3)c2)nc1.Cl" is less than 10000 nM?
Not met

Input "Cl.Cl.N=C(Nc1ccc(-c2cccc(-c3cccc(NC(=N)c4ccccn4)c3)c2)cc1)c1ccccn1" ; condition: IC50 strictly below 10000 nM. Does it hold?
Met
